The origin of these recorded values is the RNAGym collection of RNA variant scans (doi:10.7554/elife.80360).

B1: Twister Ribozyme (parent)
chain: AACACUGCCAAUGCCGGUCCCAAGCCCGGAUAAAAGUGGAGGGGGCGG

# Variants of: B1
# Method description: self-cleavage, relative activity (ratio to wild type); higher = more cleavage; co-transcriptional
The entries below are paired with their reported self-cleavage.
Output spec: single numeric token, no unit.

# count of solved cases: 5
{"columns": ["Sequence entry", "self-cleavage"],
 "data": [
  ["AACACUGGCAAUGCCGGUCCAAAGCCCGGAUAAAAGUGGAGGGGGCGG [C8G C21A]", 0.041],
  ["CACACUGCCAAUGCCGGUCCCAAGCCCGGAUAAGAGUGGAGGGGGCGG [A1C A34G]", 0.19],
  ["AACACUGCCAAUGCCGGUCCCAAGCCCGGAUGAAAGUGGAGCGGGCGG [A32G G42C]", 0.38],
  ["AACACUGCCAAUUCCGGUCCCAAGCCCGGAUAAAAGUGAAGGGGGCGG [G13U G39A]", 0.113],
  ["AACACUGCCAAUGCCAGUCCCCAGCCCGGAUAAAAGUGGAGGGGGCGG [G16A A22C]", 0.941]
]}

Here is the next item to consider.
Enquiry: Provide measured self-cleavage value, entry: AACACUCCCAAUGCCGGUCCCAAGCCCCGAUAAAAGUGGAGGGGGCGG [G7C G28C]
Return: 0.0717
